These entries and their values trace back to patent US5449672A.

Each entry below carries its recorded DHP-I susceptibility.
Test system: DHP-I (renal dehydropeptidase I)
Assay: DHP-I susceptibility, method by Kropp et al.
Type: in vitro ADME
Conditions: ratio to imipenem (=1.0); the smaller the value, the higher the stability
Experimental: One platinum loopful of each test microorganism incubated overnight in Mueller Hinton broth, was inoculated to Mueller Hinton agar (inoculum size: 10^6 CFU/ml). Such culture media contained antibacterial agents in various concentrations. After incubation at 37° C. for 16 hours, the minimum inhibitory concentrations (MIC: μg/ml) were measured. […]
Lab note: record the figure alone, no unit after it.

C[C@@H](O)[C@H]1C(=O)N2C(C(=O)O)=C(SCCN=CN)C[C@H]12 [Imipenem, monohydrate] = 1.0

### Prompt Entry `CNCCC[C@@H]1C[C@H](SC2=C(C(=O)O)N3C(=O)[C@H]([C@@H](C)O)[C@H]3[C@H]2C)CN1.Cl` needs its DHP-I susceptibility filled in; supply it.
### Response 0.07

### Prompt Fill in DHP-I susceptibility for record `CC(=O)NC[C@@H]1C[C@H](SC2=C(C(=O)O)N3C(=O)[C@H]([C@@H](C)O)[C@H]3[C@H]2C)CN1`
### Response 0.7
